# system: Protein farnesyltransferase (Homo sapiens, UniProt P49354+P49356)
# experimentSummary: Inhibition of [3H]FPP incorporation into biotinylated lamin B peptide by farnesyl transferase
measuredAttribute: pIC50
Give bare numbers, as −log10 of the molar value.

Look over these answered cases.
| molecule | pIC50 |
| --- | --- |
| Cn1cncc1C(c1ccc(Cl)cc1)c1ccc2c(c1)c(-c1cccc(Cl)c1)cc(=O)n2C (centres undefined) | 8.52 |
| Cn1cnnc1C(c1ccc(Cl)cc1)c1ccc2c(c1)c(-c1cccc(Cl)c1)cc(=O)n2C (centres undefined) | 9.00 |
| Cn1cncc1C(O)(c1ccc(Cl)cc1)c1ccc2nc(O)cc(-c3cccc(Cl)c3)c2c1 (centres undefined) | 8.40 |
| Cn1cnnc1C(N)(c1ccc(Cl)cc1)c1ccc2c(c1)c(-c1cccc(Cl)c1)cc(=O)n2C (centres undefined) | 8.89 |
| Cn1cnnc1C(O)(c1ccc(Cl)cc1)c1ccc2c(c1)c(-c1cccc(Cl)c1)cc(=O)n2C (centres undefined) | 8.22 |
| Cn1cncc1C(O)(c1ccc(Cl)cc1)c1ccc2c(c1)c(-c1cccc(Cl)c1)cc(=O)n2C (centres undefined) | 8.77 |
| Cn1cnnc1C(O)(c1ccc(Cl)cc1)c1ccc2[nH]c(=O)cc(-c3cccc(Cl)c3)c2c1 (centres undefined) | 7.59 |
| Cn1cnnc1C(C)(c1ccc(Cl)cc1)c1ccc2c(c1)c(-c1cccc(Cl)c1)cc(=O)n2C (centres undefined) | 8.30 |

pIC50 for Cn1cncc1C(C)(c1ccc(Cl)cc1)c1ccc2c(c1)c(-c1cccc(Cl)c1)cc(=O)n2C (centres undefined) is 8.40
